Target: 11β-HSD2 (Homo sapiens, UniProt P80365)
Sequence (P80365 whole entry): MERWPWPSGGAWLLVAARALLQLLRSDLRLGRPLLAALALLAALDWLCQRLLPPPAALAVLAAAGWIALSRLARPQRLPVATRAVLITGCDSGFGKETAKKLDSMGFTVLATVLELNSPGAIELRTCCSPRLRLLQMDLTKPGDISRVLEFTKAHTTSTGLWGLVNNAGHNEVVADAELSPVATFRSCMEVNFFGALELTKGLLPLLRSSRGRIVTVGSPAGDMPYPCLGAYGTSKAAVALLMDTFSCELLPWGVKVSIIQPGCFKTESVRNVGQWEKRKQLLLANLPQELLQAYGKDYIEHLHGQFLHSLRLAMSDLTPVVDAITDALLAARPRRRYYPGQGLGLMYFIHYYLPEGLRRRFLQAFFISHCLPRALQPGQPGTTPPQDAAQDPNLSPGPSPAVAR
Experiment: Determination of 11β-HSD2 inhibition in HEK293 cells stably transfected with the 11β-HSD2 gene (cortisol to cortisone, LC/MS)
Details: assay concentrations of 10, 1, 0.1 µM, 2 hours
MEASUREMENT_NAME: IC50

stdin: # IC50 lookup, item O=C(C1CCCCC1)N1CC2[C@@H](C1)[C@H]1C=C[C@@H]2[C@@H]2C[C@H]12 (stereo partly drawn)
stdout: ≥ 1000 nM

stdin: Consider the compound shown here: O=C(C1CC=CCC1)N1CC2[C@@H](C1)[C@H]1C=C[C@@H]2[C@@H]2C[C@H]12 (stereo partly drawn) What is its recorded IC50?
stdout: 100 to 1000 nM

stdin: Endpoint output: IC50 of Nc1c(Cl)cc(C(=O)N2CC3[C@@H](C2)[C@H]2C=C[C@@H]3[C@@H]3C[C@H]23)cc1Cl (stereo partly drawn) . Value?
stdout: 100 to 1000 nM

stdin: Query (compound): N#Cc1ccc(N2CCN(c3ccc(C(=O)N4CC5[C@@H](C4)[C@H]4C=C[C@@H]5[C@@H]5C[C@H]45)cn3)CC2)cc1 (stereo partly drawn) ; field requested: IC50
stdout: ≥ 1000 nM

stdin: What does the data say about its IC50? Entry: CC(C)(C)C(=O)N1CC2[C@@H](C1)[C@H]1C=C[C@@H]2[C@@H]2C[C@H]12 (stereo partly drawn)
stdout: ≥ 1000 nM

stdin: Fill in the blank: the reported IC50 of O=C(C1CCCCC1)N1CC2C3CCC(C4CC34)C2C1 (stereo not drawn) is ____.
stdout: < 100 nM
